- System: A498
- Test method notes: NCI tumour cell line growth inhibition, 48 h
The source made the active and inactive calls. No stated cut-off is given here; in the data, active = GI50 up to about 1.1 µM and inactive = higher. Where a SMILES comes first, the peptide text is derived from it. [ ]: non-standard residue; d: D form. Ac5c = NC1(C(=O)O)CCCC1
Hello, when you answer, please use one of the following outcomes: TRUE for active, FALSE for inactive

Query: Test call for this compound, please: COc1ccc(Nc2nc3ccc(C(F)(F)F)cc3nc2-c2ccccc2)cc1OC
Reply: FALSE

Query: # outcome recorded in this test, key = Cc1cccc(C(C)C)c1NC(=O)C(=O)C(C(=O)c1ccccc1F)C1OC(=O)c2ccccc21 (configuration not stated)
Reply: FALSE

Query: Which result was noted for this compound in the test: CC(N)Cc1ccc(Cl)cc1 (configuration not stated)
Reply: FALSE

Query: Dear colleague, could you share the recorded outcome for CC(C)=CC(=O)CC(=O)C(=O)Nc1ccc(Cl)c(Cl)c1 when you have a moment?
Reply: FALSE

Query: Assay result, entry NC1(C(=O)NC2(C(=O)O)CCCC2)CCCC1 (H-[Ac5c]-[Ac5c]-OH) — outcome?
Reply: FALSE

Query: Hi team, can someone confirm the assay call for CC(C)(C)c1ccc(-c2nnc(-c3cc(C#N)cc(-c4nnc(-c5ccc(C(C)(C)C)cc5)o4)c3)o2)cc1 ?
Reply: FALSE

Query: How was C/C1=C\[C@@H](O)C(=O)/C=C/C=C\c2csc(n2)[C@@H](C)NC(=O)C[C@@]2(CC1)[S+]([O-])SC(=O)[C@]2(C)O (some centres not stated) [LEINAMYCIN] classified in this test?
Reply: TRUE

Query: // return assay outcome for C=C1C(=O)C2=CC1CCC(=O)C1(C)CCC(OC(C)=O)C(C)(C)C1CC2O (configuration not stated)
Reply: FALSE

Query: Kindly provide the recorded test outcome for the following compound: CCCCNc1nc(SC)nc2[nH]cnc12
Reply: FALSE

Query: # fetch the recorded call for CC[C@H](C)N(CCN)C(=O)c1cc2ccccc2c(-c2ccccc2Cl)n1 here
Reply: FALSE

Query: Per the assay record, what outcome was assigned to CCCCCCNC(=O)c1cc(CCc2cc(O)ccc2O)ccc1O ?
Reply: FALSE

Query: For Cc1ccc(-c2nnc(SCC(=O)O)[nH]2)cc1 , what call appears in the results of this test?
Reply: FALSE

Query: What did the test return for Cc1ccc2c(c1)SSSSS2 ?
Reply: FALSE

Query: What did this assay record as the result for NC1CC(=O)c2c(Br)csc21 (configuration not stated) ?
Reply: FALSE

Query: Which result was noted for this compound in the test: O=C(O)c1ccccc1/C=N\N=C1NCCCCN1
Reply: FALSE

Query: # lookup: test call for Cn1cnc([N+](=O)[O-])c1Sc1nc2ccccc2[nH]1
Reply: FALSE

Query: Test call, this compound: CCN(CC)CCOC(=O)CCN1CC2CCC(CC2)C1
Reply: FALSE

Query: What classification did Cn1c2ccc3cc2c(=S)c2cc(ccc21)OCCOCCOCCOCCOCCO3 end up with in this test?
Reply: FALSE

Query: Which outcome did this test record for the compound CN(C)c1nncc2[nH]cnc12 ?
Reply: FALSE

Query: Test call for this compound, please: C[C@H](CCC(=O)O)[C@H]1CC[C@H]2[C@@H]3CC[C@@H]4C[C@H](O)CC[C@]4(C)[C@H]3C[C@H](O)[C@]12C [DEOXYCHOLIC ACID]
Reply: FALSE

Query: For this compound, state the assay outcome: Nc1nc(SCCC/C=C/I)nc2c1ncn2C1OC(COP(=O)(O)O)C(O)C1O (configuration not stated)
Reply: FALSE

Query: Call for entry N[C@H]1CCN(c2c(F)cc3c(=O)c(C(=O)O)cn4c3c2Oc2cc3c(ccc5ccccc53)cc2-4)C1 :
Reply: FALSE

---

- System: MOLT-4
- Test method notes: NCI tumour cell line growth inhibition, 48 h
Active and inactive are the calls of the source. Rule as the data show it: active = GI50 up to about 1.1 µM and inactive = higher.
Outcomes you can answer with include only these: yes (1) (active), no (0) (inactive)

Query: Tell me the assay call for Cc1ccc(CC(Cc2ccccc2C)C(=O)O)c(C(=O)O)c1 (configuration not stated) please.
Reply: no (0)

Query: Which outcome was entered for the compound C[C@H]1CC[C@@H]2[C@@H](C)[C@H]3[C@H](C[C@H]4[C@@H]5CC=C6C[C@@H](O)CC[C@]6(C)[C@H]5CC[C@]34C)N2C1 in this test?
Reply: no (0)

Query: Field: outcome | Entry: CC1(C)C/C=C\CCC(O)C(O)CCC(C)(C)C1=O (configuration not stated)
Reply: no (0)

Query: Answer briefly: the call reported for OC(c1cc(C23CC4CC(CC(C4)C2)C3)nc2c(Cl)cc(Cl)cc12)C1CCCCN1 (configuration not stated) in this assay.
Reply: yes (1)

Query: Hello, I am checking results. What call was entered for O=C(/C=C/c1c(O)ccc2ccccc12)c1ccccc1Cl ?
Reply: no (0)

Query: Could you please tell me the result logged for Cc1cnc(Cl)nc1C(C#N)c1nc2ccccc2n1C (configuration not stated) in this assay?
Reply: no (0)

Query: Hello, I am checking results. What call was entered for O=C(O)c1ccccc1/C=N\N=C1NCCCCN1 ?
Reply: no (0)

Query: What did the test return for O=P1(N(CCCl)CCCl)Oc2c(Cl)cc(Cl)c(Cl)c2Cc2c(Cl)c(Cl)cc(Cl)c2O1 ?
Reply: no (0)

Query: Give the logged outcome of this assay for the following compound: Cc1ccc(NC(=O)C2C(=O)N(c3ccc(C)cc3)C(=O)/C2=N\NC(N)=S)cc1 (configuration not stated)
Reply: no (0)

Query: # lookup: test call for Fc1ccc(NCn2nc(COc3ccccc3Cl)n(/N=C/c3ccc(-c4ccc(Cl)cc4Cl)o3)c2=S)cc1Cl
Reply: no (0)

Query: Would you mind telling me which call this test gave CC1=C(C(=O)Nc2ccccc2)C(c2ccccc2)C(C(=O)Nc2ccccc2)=C(C)N1 ?
Reply: no (0)

Query: Fill in: this test's call for COc1ccc(/C=C(\NC(=O)c2ccccc2)c2nc3ccccc3[nH]2)cc1OC is ___
Reply: no (0)

---

- System: IGROV-1
- Test method notes: NCI tumour cell line growth inhibition, 48 h
Active and inactive are the calls of the source. Rule as the data show it: active = GI50 up to about 1.1 µM and inactive = higher.
Provide the recorded GI50 for the entries that follow.

Query: Find the measured GI50: item COc1ccc2c(c1)C(=O)N1CCOC1C2C(=O)O (stereo not drawn) , target or system IGROV-1.
Reply: > 100 µM (inactive)

Query: Kindly state the measured GI50 obtained for CC1=C(C(=O)CC(=O)C(=O)Nc2ccc(Cl)cc2C)Sc2ccccc2N1 with IGROV-1.
Reply: > 100 µM (inactive)

Query: Given the entry O=C(CCN1CCCCC1)C(=Cc1ccccc1)C(=O)CCN1CCCCC1 , what GI50 was observed with IGROV-1?
Reply: > 100 µM (inactive)

Query: Param readout = GI50; param system = IGROV-1; param query = O=C(O)C(/C=C/c1ccccc1)c1ccccc1 (stereo not drawn) ; response: value
Reply: > 100 µM (inactive)

Query: Provide value of GI50 for this record tested with IGROV-1: CC(=O)Nc1ccccc1S(=O)(=O)c1ccccc1
Reply: > 100 µM (inactive)

Query: Record lookup: for IGROV-1, what GI50 belongs to CN(CC(=O)O)S(=O)(=O)c1ccc2ccccc2c1 ?
Reply: > 100 µM (inactive)

Query: Kindly state the measured GI50 obtained for C=C1C[C@H](O)[C@H](Br)C(C)(C)C12CCC(C)(Cl)C(Br)C2 (stereo partly drawn) with IGROV-1.
Reply: 4.38 µM (inactive)

Query: What is its GI50 for IGROV-1? Entry: C=C1C(=O)C2=CC1CCC(=O)C1(C)CCC(OC(C)=O)C(C)(C)C1CC2O (stereo not drawn)
Reply: 3.03 µM (inactive)

Query: Hello, I am looking for reported GI50 with IGROV-1 for O=C(O)c1ccccc1/C=N\N=C1NCCCCN1 . Could you help?
Reply: > 100 µM (inactive)

Query: Checklist item: GI50 tested on IGROV-1, entry CN(C)CCNC(=O)c1cccc2[nH]c(-c3cccnc3)nc12 , value?
Reply: 32.5 µM (inactive)

Query: I'm curious: which GI50 was measured for COC(=O)[C@@H]1C=C[C@@H](C#N)n2c(=O)n(-c3ccccc3)c(=O)n21 tested on IGROV-1?
Reply: 32.6 µM (inactive)

Query: Give IGROV-1 GI50 for Cc1ccc(S(=O)(=O)NC(=O)NC(C(=O)O)C(C)C)cc1 (stereo not drawn)
Reply: > 100 µM (inactive)

Query: Find the measured GI50: item CC(C)(C)c1cc(C(O)(C(F)(F)F)C(F)(F)F)c2c(c1)C(C(F)(F)F)(C(F)(F)F)OC(C)(C(C)(C)C)N2 (stereo not drawn) , target or system IGROV-1.
Reply: 4.78 µM (inactive)

Query: Query for IGROV-1: what GI50 does the record show for C=C(C)C(=O)/N=C(\N)NC#N ?
Reply: > 46.9 µM (inactive)

Query: Lookup: GI50 / IGROV-1 / COc1cc(Oc2nc3ccc(C(F)(F)F)cc3nc2-c2ccccc2)cc(OC)c1OC
Reply: 58.2 µM (inactive)

Query: Recorded GI50 for CCCCCCCCCCCCSC(=S)c1c(C)[nH]n(-c2ccccc2)c1=O with IGROV-1, please?
Reply: 14.6 µM (inactive)

Query: Test system IGROV-1; read-out GI50; what value for c1cnc2c(c1)-n1cccc1C1(CCOCC1)NN2 ?
Reply: > 100 µM (inactive)

Query: Record Cc1ccc(NC(c2ccccc2)c2ccc3cccnc3c2O)cc1 (stereo not drawn) : what is its GI50 with IGROV-1?
Reply: 4.09 µM (inactive)

Query: # get_value(readout= GI50, system= IGROV-1) for CCOC(=O)/C=C/[C@H](O[Si](c1ccccc1)(c1ccccc1)c1ccccc1)C(C)(C)C
Reply: > 31.6 µM (inactive)

Query: Give IGROV-1 GI50 for O=C(O)CCCN1CCCCC1
Reply: > 100 µM (inactive)

Query: Tell me reported GI50 for C[C@H](CCC(=O)O)[C@H]1CC[C@H]2[C@@H]3CC[C@@H]4C[C@H](O)CC[C@]4(C)[C@H]3C[C@H](O)[C@]12C , tested with IGROV-1.
Reply: 27.9 µM (inactive)

Query: Item [O-][n+]1c(-c2ccccc2)oc2ccccc21 with IGROV-1 - GI50?
Reply: 34.1 µM (inactive)

Query: So what GI50 did CN(C)c1nncc2[nH]cnc12 get with IGROV-1?
Reply: > 100 µM (inactive)
